Read-out: catalase (CAT), CAT (gene 847)
Assay: LTEA_HepaRG_CAT: Life Technologies and Expression Analysis (LTEA) Assay for catalase (CAT) using HepaRG (AID 2283452)
Settings: mRNA level, 48 h; actives raise or lower the signal
Active and inactive are the calls of the source. How the source made its calls: active means hit-call score of the fitted dose curve at least 0.9, where 1 is the maximum; inactive means score below 0.9.
In this exercise, the only acceptable responses are active, inactive

Consider the worked cases shown below.
INSERT INTO assay_data (compound, category) VALUES
  ('Nc1nc(N)nc(NC2CC2)n1', 'inactive'),
  ('CCOC(=O)COc1cc(-c2nn(C)c(OC(F)F)c2Cl)c(F)cc1Cl', 'inactive');

Outcome? FC(F)C(F)(F)OCC(Cn1cncn1)c1ccc(Cl)cc1Cl (stereo unspecified) active

Outcome? CON=C(C(=O)OC)c1ccccc1CON=C(C)c1cccc(C(F)(F)F)c1 inactive

Outcome? Cc1nn(-c2cc(NS(C)(=O)=O)c(Cl)cc2Cl)c(=O)n1C(F)F inactive

Outcome? COP(=O)(OC)C(O)C(Cl)(Cl)Cl (stereo unspecified) inactive

---

Read-out: Urokinase-type plasminogen activator receptor (uPAR), PLAUR (gene 5329)
Test: BSK_BE3C_uPAR: BioMAP Diversity Plus: BE3C Assay for Urokinase-type plasminogen activator receptor (uPAR) Biomarker Activity (AID 2283039)
Conditions: primary human bronchial epithelial cells; actives raise or lower the signal
Calls of active or inactive are those of the source. How the source made its calls: active means hit-call score of the fitted dose curve at least 0.9, where 1 is the maximum; inactive means score below 0.9.
In this exercise, the only acceptable responses are active, inactive

INSERT INTO results (compound, category) VALUES
  ('C=C(C)[C@H]1Cc2c(ccc3c2O[C@@H]2COc4cc(OC)c(OC)cc4[C@@H]2C3=O)O1', 'inactive'),
  ('CCOP(=S)(OCC)Oc1ccc2c(C)c(Cl)c(=O)oc2c1', 'inactive');

Outcome? CC(C1CC1)C(O)(Cn1cncn1)c1ccc(Cl)cc1 (stereo not given) inactive

Outcome? CC(Oc1cccc(Cl)c1)C(=O)O (stereo not given) inactive

Outcome? COP(=O)(NC(C)=O)SC (stereo not given) inactive

Outcome? S=C1NCCN1 active

Outcome? CNC(=O)ON=C(SC)C(=O)N(C)C inactive

Outcome? N#CSCSC#N inactive

Outcome? CC[C@H](C)[C@H]1O[C@]2(C=C[C@@H]1C)C[C@@H]1C[C@@H](C/C=C(\C)[C@@H](O[C@H]3C[C@H](OC)[C@@H](O[C@H]4C[C@H](OC)[C@@H](NC)[C@H](C)O4)[C@H](C)O3)[C@@H](C)/C=C/C=C3\CO[C@@H]4[C@H](O)C(C)=C[C@@H](C(=O)O1)[C@]34O)O2 active

Outcome? COc1cc(OC)nc(Sc2cccc(Cl)c2C(=O)O)n1 inactive

---

Read-out: Urokinase-type plasminogen activator receptor (uPAR), PLAUR (gene 5329)
Assay: BSK_BE3C_uPAR: BioMAP Diversity Plus: BE3C Assay for Urokinase-type plasminogen activator receptor (uPAR) Biomarker Activity (AID 2283039)
Conditions: primary human bronchial epithelial cells; actives raise or lower the signal
Calls of active or inactive are those of the source. The calls were made as follows: active = hit-call score of the fitted dose curve at least 0.9, where 1 is the maximum; inactive = score below 0.9.
Measured Property: AC50

Worked cases, answers included:
INSERT INTO results (compound, test_value) VALUES
  ('CCc1cccc(C)c1N(C(=O)CCl)C(C)COC (configuration not stated)', 'inactive'),
  ('CN(C)C(=O)Nc1cccc(C(F)(F)F)c1', 'inactive'),
  ('COP(=O)(OC)OC(Br)C(Cl)(Cl)Br (configuration not stated)', '36.6 µM (active)'),
  ('CCCCOC(=O)[C@@H](C)Oc1ccc(Oc2ccc(C#N)cc2F)cc1', '0.811 µM (active)');

Item COP(=O)(OC)SCn1c(=O)oc2cc(Cl)cnc21 has what recorded AC50? inactive

Item CC(C)[C@H](C(=O)O[C@H](C#N)c1cccc(Oc2ccccc2)c1)c1ccc(Cl)cc1 has what recorded AC50? 5.23 µM (active)

Item CCCSP(=O)(OCC)Oc1ccc(Br)cc1Cl (configuration not stated) has what recorded AC50? inactive

Item CC(=NC#N)N(C)Cc1ccc(Cl)nc1 has what recorded AC50? inactive

Item CCOP(=O)(SC(C)CC)N1CCSC1=O (configuration not stated) has what recorded AC50? inactive

Measured values drawn from PubChem BioAssay (EPA / NIEHS) for this set.
